B1: LINE1-full (parent)
chain: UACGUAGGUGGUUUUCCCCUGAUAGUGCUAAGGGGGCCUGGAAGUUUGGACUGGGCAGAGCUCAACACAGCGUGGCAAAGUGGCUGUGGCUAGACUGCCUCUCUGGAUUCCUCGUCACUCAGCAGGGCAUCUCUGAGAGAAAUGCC

Variants of: B1
test_method_notes: self-cleavage, relative activity (ratio to wild type); higher = more cleavage; in vitro, sequencing; the parent is a self-cleaving ribozyme
quantity_measured: self-cleavage
Provide a numeric answer; units are not to be included.

Please report the recorded self-cleavage for `UACGUAGGUGGUUUUCCCCUGAUAGUGCUAAGGGGGCCUGGAAGUUUUGACUGGGCAGAGCUCAACACAGCGUGGCAAAGUGGCUGUGGCUAGACUGCCUCUCUGGAUUCCUCGUCACUCAGCAGGGCAUCUCUGAGAGAAAUGCC` . 0.94

Please give the measured self-cleavage for this variant: `UACGUAGGUGGUUUUCCCCUGAUAGUGCUAAGGGGGCCUGGAAGUUUGGACUGGGCAGAGCUCUACACAGCGUGGCAAAGUGGCUGUGGCUAGACUGCCUCUCUGGAUUCCUCGUCACUCAGCAGGGCAGCUCUGAGAGAAAUGCC` 0.43

Can you look up the measured self-cleavage of `UACGUAGGUGGUUUUCCCCUGAUAAUGCUAAGGGGGCCUGGAAGUUUGGACUGGGCAGAGCUCAACACAGCGUGGCAGAGUGGCUGUGGCUAGACUGCCUCUCUGGAUUCCUCGUCACUCAGCAGGGCAUCUCUGAGAGAAAUGCC` for me? 1.2

Record request: self-cleavage value, item `UACGAAGGUGGUUUUCCCCUGAUAGUGCUAAGGGGGCCUGGAAGUUUGGACUGGGCAGAGCUCAACACAGCGUGGCAAAGUGGCUGUGGCUAGACUGCCUCUCUGAAUUCCUCGUCACUCAGCAGGGCAUCUCUGAGAGAAAUGCC` 1.14

Which self-cleavage value is on record for `UACGUAGGUGGUUUUCCCCUGAUAGUGCUAAGGGGGCCUGGAAGUUUGGACUGGGCAGAGCUCAACACAGCGUGGCAAAGUGGCCGUGGCUUGACUGCCUCUCUGGAUUCCUCGUCACUCAGCAGGGCAUCUCUGAGAGAAAUGCC` ? 0

Returns the measured self-cleavage for the input variant. Input: `UACGUAGGUGGUUUUCCCCUGAUAGUGCUAAGGGGGCCUGGAAGUUUGGACUGGGCAGAGCUCAACACAGCGUGGCAAAGUGACUGUGGCUUGACUGCCUCUCUGGAUUCCUCGUCACUCAGCAGGGCAUCUCUGAGAGAAAUGCC` 0.27

For the variant `UACGUAGGUGGUUUUCCCCUGAUAGUGCUAAGGGGGCCUGGAAGUUUGGACUGGGCAGAGCUCAACACAGCGCGGCAAAGUGGCUGUGGCUAGACUGCCUCUCUGGAUUCCUCGUCACUCAGCAGGGCAUCUCUGAGAGAAAUGCU` , what self-cleavage is on record? 1.04

For the variant shown here, `UACGUAGGUGGUUUUCCCCUGAUAGUGCUAAGGGGGCCUGGAAGUUUGUACUGGGCAGAGCUCAACACAGCGUGGCAAAGUGGCUGUGGCUAGACUGCCUCUCUGGAUUCCUCGUCACUCAGCAGGACAUCUCUGAGAGAAAUGCC` , give the reported self-cleavage. 0.27

# query: self-cleavage of entry `UACGUAGGUGGUUUUCCCCUGAUAGUGCUAAGGGGGCCUGGAAGUUUGGACUGGGCAGAGCUCAACACAGCGUGGCAAAGUGGCUGUGGCUAGACUGCCCCUCUGGAUUCCUCGUCACUCAGCAGGGCAUCUCCGAGAGAAAUGCC` 2.01

For `UACGUAGGUGGUUUUCCCCUGAUAGUGCUAAGGGGGCCUGGAGGUUUGGACUGGGCAGAGCUCAACACAGCGUGGCAAAGUGGCUGUGGCUAGACCGCCUCUCUGGAUUCCUCGUCACUCAGCAGGGCAUCUCUGAGAGAAAUGCC` , what is its reported self-cleavage? 0.09

// query self-cleavage value for entry `UACGUAGGUGGUUUUCCCCUGAUAGUGCUAAGGGGGCCUGGAAGUUUGGACUGGGCAGAGCUCAACACAGCGUGGCAAAGUGGCUGUGGCUAGACUGCCCCUCUGGAUUCCUCGUCACUCAGCAGGGCAUCUCUGAGAGAAAAGCC` 1.15

Which self-cleavage reading was recorded for the variant `UACGUAGGUGGUUUUCCCCUGAUAGUGCUAAGGGGGCCUGGAAGUUUGGACUGGGCAGAGCUCAACGCAGCGUGGCAAAGUGGCCGUGGCUAGACUGCCUCUCUGGAUUCCUCGUCACUCAGCAGGGCAUCUCUGAGAGAAAUGCC` ? 0.1

Return reported self-cleavage; argument: `UACGUAGGUGGUUUUCCCCUGAUAGUGCUAAGGGGGCCUGGAAGUUUGGACUGGGCAGAGCUCAACACAGCGUGGCAAAGUAGCUGUGGCUAGACUGCCUCUCUGGAUUCCUCCUCACUCAGCAGGGCAUCUCUGAGAGAAAUGCC` 3

GET /values?readout=self-cleavage&item= `UACGUAGGUGGUUUACCCAUGAUAGUGCUAAGGGGGCCUGGAAGUUUGGACUGGGCAGAGCUCAACACAGCGUGGCAAAGUGGCUGUGGCUAGACUGCCUCUCUGGAUUCCUCGUCACUCAGCAGGGCAUCUCUGAGAGAAAUGCC` 0.79

# input variant: `UACGUAGGUGGUUUUCCCUUGAUAGUGCUAAGGGGGCCUGGAAGUUUGGACUGGGCAGAGCUCAACACAGCGUGGCAAAGUGGCUGUGGCUAGACUGCCUCUCCGGAUUCCUCGUCACUCAGCAGGGCAUCUCUGAGAGAAAUGCC` ; wanted: its self-cleavage 0.65

Param item = `UACGUAGGUGGUUUUCCCCUGAUAGUGCUAGGGGGGCCUGGAAGUUUGGACUGGGCAGAGCUCAACACGGCGUGGCAAAGUGGCUGUGGCUAGACUGCCUCUCUGGAUUCCUCGUCACUCAGCAGGGCAUCUCUGAGAGAAAUGCC` ; retrieve measured self-cleavage. 0.78

Which value of self-cleavage has been reported for `UACGUAGGUGGUUUUCCCCCGAUAGUGCUAAGGGGGCCUGGAAGUUUGGACUGGGCAGAGCUCAACACAGCGUGGCAAAGUGGCUGUGGCUAGACUGCCUCUCUGGAUUCCUCGUCACUCAGCAGGGCAUCUCGGAGAGAAAUGCC` in the records? 0.77

What self-cleavage value was documented for this variant, `UACAUAGGUGGUUUUCCCCUAAUAGUGCUAAGGGGGCCUGGAAGUUUGGACUGGGCAGAGCUCAACACAGCGUGGCAAAGUGGCUGUGGCUAGACUGCCUCUCUGGAUUCCUCGUCACUCAGCAGGGCAUCUCUGAGAGAAAUGCC` ? 0.76

// lookup self-cleavage for `UACGUAGGUGGUUUUCCCCUGAUAGUGCUAAGGGGGCCUGGAAGUUUAGACUGGGCAGAGCUCAACACAGCGUGGCAAAGUGGCUGUGGCUAGACUGCCUCUCUGGAUUCCUCGUCACUCAGCGGGGCAUCUCUGAGAGAAAUGCC` 0.92

Can you look up the measured self-cleavage of `UACGUAGGUGGUUUUCCCCUGAUAGUGCUAAGGGGGCCUGGAAGUUUGGAAUGGGCAGAGCUCAACUCAGCGUGGCAAAGUGGCUGUGGCUAGACUGCCUCUCUGGAUUCCUCGUCACUCAGCAGGGCAUCUCUGAGAGAAAUGCC` for me? 0.1

Recorded self-cleavage of `UACGUAGGAGGUUUUCCCCUGAUAGUGCUAAGGGGGCCUGGAAGUUUGGACUGGGCAGAGCUCAACACAGCGCGGCAAAGUGGCUGUGGCUAGACUGCCUCUCUGGAUUCCUCGUCACUCAGCAGGGCAUCUCUGAGAGAAAUGCC` , please. 0.94

May I ask what self-cleavage has been recorded for `UACGUAGGUGGUUUUCCCCUGAUAGUGCUAAGGGGGCCUGGAAGUUUGGGCUGGGCAGAGCUCAACACAGCGUGGCAAAGUGGCUGUGGCUAGACUGCCUCUCUGGAUUCCUCGACACUCAGCAGGGCAUCUCUGAGAGAAAUGCC` ? 0.95
